# TEST_NAME: amyloid nucleation score (Sup35N fusion, yeast selection) (log enrichment); library NNK1; higher = more nucleation; inactive = no reads after selection;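 note: zero at mode of non-aggregating sequences after 7 days selection at 30°C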
amyloid nucleation score vs 0.5: at or above is Criterion met, below is Criterion not met.

1) LIIRVWLKNQPDTLGKRRRE :: Criterion not met
2) VAVTITYAICDTLILFIEGG :: Criterion met
3) SPPSLRNLNYIFAY :: Criterion not met
4) ARWMVWTLESHLPDNFTMVN :: Criterion not met
5) FLLLCRSFFSARTILRCTMG :: Criterion not met
6) LDRVSWSDRKSNGQ :: Criterion met
7) AVPRAFIQKCSSITLSVYPM :: Criterion not met
8) TWAVSNLSRV :: Criterion not met
9) NVWLWDTKFILQTRIPS :: Criterion not met
10) GRTFVHSLWACNNSYCSL :: Criterion met
11) TWCCYCFLRVFFEERE :: Criterion not met
12) RRLHMLVNHLKCAGATRGGR :: Criterion not met
13) MFFGWGT :: Criterion met
14) VNSSKFKRVIYLV :: Criterion not met
15) EVIVYKTFEDVSQRVRHNWN :: Criterion met
16) FVVIEILDFSPFDHCFIILE :: Criterion met
17) QVNNPSTWLMRNQIDQKLLR :: Criterion not met
18) GRVFAVSYFVRAGLVNEG :: Criterion not met
19) NDGVNPYNMACKMLSCYNSA :: Criterion met
20) RPNMVNVKNSRRFSL :: Criterion not met
21) RKIVYVYEDVVRLNTCRISS :: Criterion not met
22) ADVQWRHRTGISSSIVRSGA :: Criterion met
23) TFSFFDRVLSLFLN :: Criterion not met
24) WMYTMTGFEVNRTVNFYWTI :: Criterion not met
25) AWWRCCGTLRTVRSAAKGLM :: Criterion not met
26) FTLSKTILDRSFLWIQGLWS :: Criterion not met
27) LSGPCNFYQHSVSWCLCTYA :: Criterion met
28) LLNLYWFLSVPDTINLSHER :: Criterion met
29) LMASDVT :: Criterion not met
30) LCKIKESNDLFSARSIVAHQ :: Criterion met
31) FLQNMSVILTIMNDIKIMED :: Criterion met
32) RDTNVWFHT :: Criterion not met
33) ILWLVMWVWTSRFVRCRRHS :: Criterion not met
34) TSNYAGAISFANSNILLFFV :: Criterion met
35) KMKSEDT :: Criterion met
36) GISCFHW :: Criterion met
37) SEIPKSYPNFDYVSFINNSL :: Criterion not met
38) LRHMLIAAFSDWVKYWGCAR :: Criterion not met
39) CFMVHNTVVRVGKE :: Criterion not met
40) DLFLRYSLAGYYAMESPADS :: Criterion not met
41) FVSVAQVEE :: Criterion not met
42) SSVLVLHYRTSG :: Criterion met
43) REVWRLFILSRVVGYKVIL :: Criterion not met
44) MYSLFMSKVRHFCVT :: Criterion met
45) IVVGRGKQAIASMG :: Criterion not met
46) TLLPIKHSCHGNWINQLYGT :: Criterion not met
47) NLDVYFLVRWLLSCRCACRS :: Criterion met
48) CWAKEFFNNESIRG :: Criterion not met
49) WSMLSADSRISYYIYQCSLF :: Criterion met
50) GDVPYRNMHCPRFLMREMVV :: Criterion not met
51) LQIYCAPGFV :: Criterion not met
52) AYAKLYKLSVLEPGRRVRMQ :: Criterion met
53) TYPLGNSESISVRLFIQYVT :: Criterion met
54) IVRIESVEFSDYADFAFEVR :: Criterion met
55) NFSESFLTVNPQTTDVLKLH :: Criterion not met
56) LPSSSPMTRR :: Criterion not met
57) DHGFLGE :: Criterion not met
58) ASHLIYCFEARASLILL :: Criterion met
59) FASASLLFSKPESG :: Criterion not met
60) VFLRRVINTSFGSMMV :: Criterion met
61) LFMNCLILRMFTCAFHNSSE :: Criterion met
62) SRGHDVRLTACDADGGLGLC :: Criterion not met
63) RVGEKSVEWPAFLRYLMKWF :: Criterion not met
64) MYLFICVGSMVNQDVNEMMR :: Criterion met
65) RCLQKPMRLRSQKIKQCVLR :: Criterion not met
66) RAHVLLLFMNCRRCKQTMIR :: Criterion not met
67) IWRLWWAKGPGSRLLRCRLY :: Criterion not met
